Data provenance is patent EP4656642A1.

Degradation rates of the AR protein in VCAP cells, 5 nM values by entry
Target: AR protein (Homo sapiens)
Construct: host or cells: VCaP
Sequence (P10275 1-920): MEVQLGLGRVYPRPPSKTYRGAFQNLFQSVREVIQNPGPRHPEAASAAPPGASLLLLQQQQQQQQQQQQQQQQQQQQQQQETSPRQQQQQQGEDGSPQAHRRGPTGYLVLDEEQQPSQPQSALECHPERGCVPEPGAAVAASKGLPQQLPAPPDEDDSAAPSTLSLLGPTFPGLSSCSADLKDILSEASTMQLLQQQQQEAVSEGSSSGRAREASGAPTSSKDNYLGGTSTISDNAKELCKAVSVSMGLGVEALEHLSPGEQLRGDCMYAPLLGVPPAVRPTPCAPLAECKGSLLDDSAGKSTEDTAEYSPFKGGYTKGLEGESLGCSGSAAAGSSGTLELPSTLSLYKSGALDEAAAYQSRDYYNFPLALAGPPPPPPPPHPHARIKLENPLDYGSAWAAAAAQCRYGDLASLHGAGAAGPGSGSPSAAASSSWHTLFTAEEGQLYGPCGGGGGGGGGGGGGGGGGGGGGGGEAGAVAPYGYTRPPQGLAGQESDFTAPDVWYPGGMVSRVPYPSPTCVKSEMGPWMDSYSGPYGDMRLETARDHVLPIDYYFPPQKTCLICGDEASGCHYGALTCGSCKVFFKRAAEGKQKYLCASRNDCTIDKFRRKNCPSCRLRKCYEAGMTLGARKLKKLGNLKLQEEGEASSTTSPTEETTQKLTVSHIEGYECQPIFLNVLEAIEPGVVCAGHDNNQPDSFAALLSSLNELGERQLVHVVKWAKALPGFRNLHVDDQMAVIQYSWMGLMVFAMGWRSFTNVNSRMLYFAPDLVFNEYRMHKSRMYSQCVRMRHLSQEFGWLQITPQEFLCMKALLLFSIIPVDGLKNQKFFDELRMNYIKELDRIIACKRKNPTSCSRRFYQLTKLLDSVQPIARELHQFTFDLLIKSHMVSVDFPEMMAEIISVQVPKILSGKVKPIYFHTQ
Assay type: cell-based
Settings: 5 nM, 8 h
Write the number in % without appending the unit.

Illustrative cases are given below, each with its answer.
{"MOLECULE": "COc1cc(O[C@H]2C(C)(C)[C@H](NC(=O)c3ccc(N4CCC(CN5CCC6(CC5)COc5c6ccc6c5C(=O)N(C5CCC(=O)NC5=O)C6)CC4)cc3)C2(C)C)ccc1C#N (relative stereo)", "STUDY TARGET": "AR protein (Homo sapiens)", "RECORDED NUMBER": 78}
{"MOLECULE": "N#Cc1ccc(O[C@H]2CC[C@H](NC(=O)c3ccc(N4CCC(F)(CN5CCC6(CC5)COc5c6ccc6c5C(=O)N(C5CCC(=O)NC5=O)C6)CC4)nn3)CC2)cc1Cl (relative stereo)", "STUDY TARGET": "AR protein (Homo sapiens)", "RECORDED NUMBER": 71}
{"MOLECULE": "COC1(CN2CCC3(CC2)COc2c3ccc3c2C(=O)N(C2CCC(=O)NC2=O)C3)CCN(c2ccc(C(=O)N[C@H]3CC[C@H](Oc4ccc(C#N)c(Cl)c4)CC3)nn2)CC1 (relative stereo)", "STUDY TARGET": "AR protein (Homo sapiens)", "RECORDED NUMBER": 88}
{"MOLECULE": "COc1cc(O[C@H]2CC[C@H](NC(=O)c3ccc(N4CCC(F)(CN5CCC6(CC5)COc5c6ccc6c5C(=O)N(C5CCC(=O)NC5=O)C6)CC4)nn3)CC2)ccc1C#N (relative stereo)", "STUDY TARGET": "AR protein (Homo sapiens)", "RECORDED NUMBER": 61}
{"MOLECULE": "COc1cc(O[C@H]2C(C)(C)[C@H](NC(=O)c3ccc(N4CCC(CN5CCC6(CC5)COc5c6ccc6c5C(=O)N(C5CCC(=O)NC5=O)C6)(OC)CC4)cc3)C2(C)C)ccc1C#N (relative stereo)", "STUDY TARGET": "AR protein (Homo sapiens)", "RECORDED NUMBER": 89}

Problem: // fetch AR protein (Homo sapiens) Degradation rates of the AR protein in VCAP cells, 5 nM for COc1cc(O[C@H]2CC[C@H](NC(=O)c3ccc(N4CCC(C)(CN5CCC6(CC5)COc5c6ccc6c5C(=O)N(C5CCC(=O)NC5=O)C6)CC4)nn3)CC2)ccc1C#N (relative stereo)
Result: 82
